Assay: Liver microsome stability, human
Type: in vitro ADME
Settings: liver microsomes; Human liver microsome; read-out: Intrinsic clearance Cl′int, (μL/min/mg protein)
Quantity measured: microsomal CLint (µL/min/mg)
Numbers only, in µL/min/mg.

Query: Requested read-out: microsomal CLint. Entry: COc1cc2ncc3ncn(Cc4ccc(S(N)(=O)=O)cn4)c3c2cc1OC [Compound 12]
Response: 2.8

* * *

Target: human soluble ENPP1 (Homo sapiens, UniProt P22413)
Construct: 20 ng of human soluble ENPP1
Sequence (P22413 103-925 limits assumed): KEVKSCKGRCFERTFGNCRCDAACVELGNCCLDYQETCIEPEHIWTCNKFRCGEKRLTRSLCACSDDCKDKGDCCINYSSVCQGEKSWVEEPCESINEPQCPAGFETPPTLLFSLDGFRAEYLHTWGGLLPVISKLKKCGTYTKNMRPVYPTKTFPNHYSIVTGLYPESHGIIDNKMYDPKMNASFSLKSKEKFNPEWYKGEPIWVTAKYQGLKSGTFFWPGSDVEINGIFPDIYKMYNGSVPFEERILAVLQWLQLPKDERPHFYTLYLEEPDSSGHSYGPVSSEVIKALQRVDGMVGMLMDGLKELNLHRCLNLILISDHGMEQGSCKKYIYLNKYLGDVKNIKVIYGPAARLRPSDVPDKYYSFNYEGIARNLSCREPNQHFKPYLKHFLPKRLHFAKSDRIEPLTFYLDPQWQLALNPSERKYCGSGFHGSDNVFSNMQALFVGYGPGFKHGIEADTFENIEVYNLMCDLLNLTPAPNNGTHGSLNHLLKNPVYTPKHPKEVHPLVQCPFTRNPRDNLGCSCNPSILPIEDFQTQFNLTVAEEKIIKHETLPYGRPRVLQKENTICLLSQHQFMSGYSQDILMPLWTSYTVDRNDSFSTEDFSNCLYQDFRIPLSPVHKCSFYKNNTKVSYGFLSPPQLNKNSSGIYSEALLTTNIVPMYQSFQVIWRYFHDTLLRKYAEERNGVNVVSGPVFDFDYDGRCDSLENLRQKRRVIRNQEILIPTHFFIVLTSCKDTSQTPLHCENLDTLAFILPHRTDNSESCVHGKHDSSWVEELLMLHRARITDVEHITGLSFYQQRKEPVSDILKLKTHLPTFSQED
Assay: ENPP1 activity assay using p-Nitrophenyl-5′-TMP as a substrate
Type: biochemical
Could you please report measured IC50 for the items listed next?
Numbers only, in nM.

The cases that follow already have their IC50 on record.
>>> df
                                   molecule  quantity_measured  readout_number
0  COc1ccc2c(ncc3nnn(Cc4ccc(S(N)(=O)=O)cn4)c32)n1               IC50             0.7
1  COc1ccc2c(ncc3c2n(Cc2c(F)cc(S(N)(=O)=O)cc2F)c(=O)n3C)n1               IC50            0.27
2  COc1nc2nc(C)c3nc(C)n(Cc4ncc(S(N)(=O)=O)cn4)c3c2cc1Cl [Compound 91b]               IC50              62

Kindly consider the entry below.
Query: Requested read-out: IC50. Entry: `COc1ccc2c(ncc3[nH]c(=O)n(Cc4ccc(S(N)(=O)=O)cc4)c32)n1`
Response: 0.31
